Listed here are compounds together with their documented GI50.
Tested on: HCT-15

compound	GI50
COC(=O)C1=C(OC(=O)/C(=C/c2ccc(Cl)cc2)c2ccccc2)C(C(=O)OC)[C@@]2(O)[C@@H](C(=O)OC)[C@H](C)C[C@@H]1[C@@H]2C(=O)OC (stereo partly specified)	> 100 µM
Cc1nc(O)c2ncn(CCO)c2n1	> 100 µM
CC(=O)O[C@H]1C[C@H]2C(=S)Nc3ccccc3C(=S)N2C1	> 100 µM

Give the measured GI50 of CC(=O)Nc1ccccc1NC1CC(C)N(c2ccccc2)N1C(C)=O (stereo unspecified) .
> 10 µM

And what about the compound COC(=O)C1CCC(N2C(=O)CCC2C(=O)OC)=N1 (stereo unspecified) ?
> 100 µM

And O=C1C/C(=C\O)C(=O)c2ccccc2N1 ?
> 100 µM

What do you have for O=C(/C=C/c1ccco1)N1CCN(Cc2ccccc2)CC1 ?
> 100 µM

Next record, please: CCOC(=O)NC(=O)c1cn(CCCCCOC(=O)NCCCCCCNC(=O)OCCCCCn2cc(C(=O)NC(=O)OCC)c(=O)[nH]c2=O)c(=O)[nH]c1=O
> 100 µM

----------
System: DU-145
method: NCI tumour cell line growth inhibition, 48 h
The source made the active and inactive calls. Cut-off read from the data, not from the text of the source: active = GI50 up to about 1.1 µM and inactive = higher.
valueKind: GI50

compound	GI50
O=C(CCN1CCCCC1)Nc1ccc2c(c1)C(=O)c1ccc(NC(=O)CCN3CCCCC3)cc1C2=O	14 µM (inactive)
Cn1cc(NC(=O)Nc2cc(C(=O)Nc3cc(C(=O)Nc4ccc(S(=O)(=O)O)c5cc(S(=O)(=O)O)ccc45)n(C)c3)n(C)c2)cc1C(=O)Nc1cc(C(=O)Nc2ccc(S(=O)(=O)O)c3cc(S(=O)(=O)O)ccc23)n(C)c1	> 100 µM (inactive)
O=C(O)/C=C(/CC(=O)O)C(=O)O	19.9 µM (inactive)
C/C(=C\COP(=O)(O)CP(=O)(O)O)CC/C=C(\C)CNc1ccccc1	> 100 µM (inactive)
CC(=O)OCC1OC(n2cnc3nc(Br)[nH]c(=O)c32)C(OC(C)=O)C1OC(C)=O (configuration not stated)	> 100 µM (inactive)
CC(=O)Nn1c(=S)[nH]c2ccccc21	> 100 µM (inactive)

Lab note: need GI50 for CC(=O)c1c(CO[N+](=O)[O-])[n+]([O-])c2ccccc2[n+]1[O-] on DU-145, anyone have it?
> 100 µM (inactive)

----------
System: HOP-62
method: NCI tumour cell line growth inhibition, 48 h
Active and inactive are the calls of the source. No stated cut-off is given here; in the data, active = GI50 up to about 1.1 µM and inactive = higher.
compounds and their reported GI50

> print(dat)
                                   compound  assayedtarget                  val
1  COP1(=O)Oc2ccccc2C(=O)C(C(F)(F)F)(C(F)(F)F)O1 (configuration not stated)         HOP-62  > 100 µM (inactive)
2       CCOC(=O)n1[nH]c(=O)n(-c2ccccc2)c1=O         HOP-62  > 100 µM (inactive)
3  COc1ccccc1N1C(=O)CSC1c1cccc(Oc2ccccc2)c1 (configuration not stated)         HOP-62   20.1 µM (inactive)
4  Brc1ccc2c(c1)C1C(CO2)C(c2ccccc2)=NN1c1ccccc1 (configuration not stated)         HOP-62  > 100 µM (inactive)
5  COC1OCC(O)C(NC(=O)N(C)N=O)C1O (configuration not stated)         HOP-62  > 100 µM (inactive)

What value of GI50 has been reported for the following compound? COc1cccc(-c2nc(N)c(C#N)c3c2CCS(=O)(=O)c2ccc(C)cc2-3)c1
30.2 µM (inactive)

Ok, now O=C1CCCC(=O)N1n1c(Cc2ccccc2)n[nH]c1=O
> 100 µM (inactive)

----------
Test system: SF-268
method: NCI tumour cell line growth inhibition, 48 h
Calls of active or inactive are those of the source. Rule as the data show it: active = GI50 up to about 1.1 µM and inactive = higher. Non-standard residues stand in square brackets, D forms with d. Residues, ends and D or L forms follow the SMILES beside them. ξ: configuration not given here. *: point of attachment. ξNMeF = CNC(Cc1ccccc1)C(=O)O; NMeV = CN[C@H](C(=O)O)C(C)C; Boc = CC(C)(C)OC(=O)*; OBn = c1ccc(CO*)cc1
Thanks in advance; please answer with one of these: active, inactive

Take a look at these entries with their results.
molecule	discreteLabel
COP12(OC)NC(=O)OC1(C(F)(F)F)c1ccccc1O2 (configuration not stated)	inactive
CC1(C)N=C(N)N=C(N)N1c1cccc(C(=O)Nc2ccc(S(=O)(=O)F)cc2)c1	inactive
CCOc1ccc(/C=C2\N=C(c3ccccc3)OC2=O)cc1	inactive
CS(=O)(=O)OCCN(CCOS(C)(=O)=O)c1ccc(C=O)cc1	inactive

Any idea what this test logged for COC(=O)C[C@](O)(CCC(C)(C)O)C(=O)O[C@@H]1C(OC)=C[C@]23CCCN2CCc2cc4c(cc2[C@H]13)OCO4 ?
active

Would you mind doing O=C1C(Cl)C2(CC(/C=C/c3ccccc3O)=NN2c2cccc(S(=O)(=O)O)c2)N1c1nc2ccccc2s1 (configuration not stated) as well?
inactive

Now consider CC(C)[C@@H](C(=O)N(C)[C@H](C(=O)N1CCC[C@H]1C(=O)OCc1ccccc1)C(C)C)N(C)C(=O)C(Cc1ccccc1)N(C)C(=O)[C@H](NC(=O)OC(C)(C)C)C(C)C (some centres not stated) (Boc-[dV][ξNMeF][NMeV][NMeV]P-OBn) .
inactive

----------
Listed below: GI50 values for each entry.
System: PC-3
method: NCI tumour cell line growth inhibition, 48 h
Active and inactive are the calls of the source. Cut-off read from the data, not from the text of the source: active = GI50 up to about 1.1 µM and inactive = higher.

> print(dat)
                                   compound  assayedtarget                  val
1  CC(=O)c1c(CO[N+](=O)[O-])[n+]([O-])c2ccccc2[n+]1[O-]           PC-3  > 100 µM (inactive)
2  Cc1ccc(/N=C2N=C(Cl)/C(=C\c3ccco3)N\2)cc1           PC-3  > 100 µM (inactive)
3             C/N=c1\sc2nc(C#N)c(C#N)nc2n1C           PC-3   40.2 µM (inactive)
4  NC1CC(=O)c2csc(Br)c21 (stereo unspecified)           PC-3     14 µM (inactive)

Tell me the measured GI50 of CC(=NNC(=S)Nc1cccc(C)c1)c1cccc(C(C)=NNC(=S)Nc2cccc(C)c2)n1 , please.
22.3 µM (inactive)

Cc1cc(C)nc(NS(=O)(=O)c2ccc(Nc3c4ccccc4nc4c(C(=O)NC(CO)(CO)CO)cccc34)cc2)n1 , same question.
35.6 µM (inactive)

----------
Tested on: RXF 393
method: NCI tumour cell line growth inhibition, 48 h
The source made the active and inactive calls. Cut-off read from the data, not from the text of the source: active = GI50 up to about 1.1 µM and inactive = higher.
valueKind: GI50

Some solved entries appear below for comparison.
> print(dat)
                                   molecule                  val
1  Cc1ccc(NC(=O)C(=O)CC(=O)c2sc(Nc3c(C)cccc3C)nc2C)cc1C  > 100 µM (inactive)
2  COc1ccc(C(=C2C(=O)OC(=O)C2=C(C)C)c2ccc(OC)cc2)cc1  > 100 µM (inactive)
3  CC(=O)OCc1ccc2oc(=O)c(C(=O)Oc3ccccc3)cc2c1   44.6 µM (inactive)

Now take the following molecule into account.
Entry under review: N#Cc1ccc(C(O)C(F)(F)c2nc3ccccc3o2)cc1 (centres undefined) . Reported GI50?
> 100 µM (inactive)

----------
System: U-251
method: NCI tumour cell line growth inhibition, 48 h
Active and inactive are the calls of the source. No stated cut-off is given here; in the data, active = GI50 up to about 1.1 µM and inactive = higher.
valueKind: GI50

Recorded GI50, per entry:
molecule	assayedTarget	val
COC(=O)C(=O)C(C(=O)C(=O)Nc1ccc(Cl)cc1C)c1nc2ccc(C(=O)c3ccccc3)cc2nc1O (centres undefined)	U-251	> 100 µM (inactive)
OC1(C(F)(F)F)OCCN=C1C(F)(F)F (centres undefined)	U-251	> 100 µM (inactive)
COc1ccccc1N1C(=O)CSC1c1cccc(Oc2ccccc2)c1 (centres undefined)	U-251	17 µM (inactive)
CN(C)Cc1cc(C(=O)/C=C/c2ccccc2)cc(CN(C)C)c1O	U-251	35.3 µM (inactive)
CC1(C)CCCC2CC2CCC(C)(C)C1=O (centres undefined)	U-251	19.1 µM (inactive)

// query GI50 value for entry COC(=O)[C@H](Cc1ccccc1)NP(=O)(OCCC#N)OCC1OC(n2cc(C)c(=O)[nH]c2=O)CC1N=[N+]=[N-] (some centres undefined)
> 100 µM (inactive)

Same thing, different molecule: O=CN(O)CC(=O)O
> 100 µM (inactive)

CCCCNC(=O)c1cc2c(cc1Cl)Sc1nccn1S2(=O)=O , same question.
54.8 µM (inactive)

Please answer likewise for O=C(NO)c1ccc(O)c(O)c1
> 100 µM (inactive)

# repeat for OC12c3ccccc3C1(N1CCOCC1)CCCCC21OCCCO1 (centres undefined)
> 100 µM (inactive)

Same read-out for CC(=O)OCc1ccc2oc(=O)c(C(=O)Oc3ccccc3)cc2c1 ?
> 100 µM (inactive)

Moving on to COC(=O)C1CCC(N2C(=O)CCC2C(=O)OC)=N1 (centres undefined)
> 100 µM (inactive)

Input COc1ccc2[nH]c3c([N+](=O)[O-])ccc(Cl)c3c(=O)c2c1
25.4 µM (inactive)

Similarly, CC(=O)OCC1OC(Sc2nc(-c3ccccc3)c(C#N)c(=O)n2C2OC(COC(C)=O)C(OC(C)=O)C(OC(C)=O)C2OC(C)=O)C(OC(C)=O)C(OC(C)=O)C1OC(C)=O (centres undefined) ?
> 100 µM (inactive)

And then Cc1nc2ccc(S(=O)(=O)O)cc2c(=O)n1-c1ccc(C(=O)NN2C(=O)C(Cl)C2c2ccccc2O)cc1 (centres undefined) , what is it?
> 100 µM (inactive)

Same question for CCCCCCCCCCCCCCCCCCNc1nc(=O)n(C2CC(O)C(COP(=O)(O)OCC(COP(=O)(O)OC3C(CO)OC(n4ccc(N)nc4=O)C3O)OCCCCCCCCCCCCCCCCCC)O2)cc1F (centres undefined) please.
13.3 µM (inactive)

Also check Clc1cc2ncn(C3CCCO3)c2cc1Cl (centres undefined)
69.7 µM (inactive)

Do the same for CN(C)C(=O)Oc1c(-c2ccccc2)c(=O)n2c3ccccc3n3c(=O)n(C)c(=O)c1c23 please
> 100 µM (inactive)

Here is the next molecule: CC(NNC(=O)c1cc[n+]([BH2-]C#N)cc1)C(F)(F)F (centres undefined)
> 100 µM (inactive)

How about Cc1cccc(O)c(=O)c1 ?
21.4 µM (inactive)

Now consider COC1CCC2C(NS(=O)(=O)c3ccc(C)cc3)CCCC2O1.Cc1ccc(S(=O)(=O)NC(C)(C)C=O)cc1 (centres undefined) .
> 34.5 µM (inactive)

What about CCOC(=O)n1[nH]c(=O)n(-c2ccccc2)c1=O ?
> 100 µM (inactive)
